Assay: Cytotoxicity against mouse RAW264.7 cells assessed as cell viability at 10 uM incubated for 24 hrs by MTT assay relative to control
Assay type: toxicity, cell-based
Details: read-out: Activity

{"columns": ["compound", "viability at 24 h, 10 µM / %"],
 "data": [
  ["O=C(/C=C/c1ccccc1)NC(=O)c1cccs1", 110],
  ["O=C(NC(=O)C1CCNC1)c1ccccc1 (stereo not drawn)", 115],
  ["O=C(NC(=O)c1cccnc1)c1ccccc1", 103],
  ["CC(C)Cc1ccc(C(C)C(=O)O)cc1 (stereo not drawn)", 132],
  ["O=C(NC(=O)c1ccccc1)c1ccccc1", 109],
  ["O=C(/C=C/c1ccccc1)NC(=O)C1CCNC1 (stereo not drawn)", 130],
  ["COc1cc(/C=C/C(=O)CC(=O)/C=C/c2ccc(O)c(OC)c2)ccc1O", 120],
  ["O=C(/C=C/c1ccccc1)NC(=O)c1ccccc1", 72.8],
  ["O=C(NC(=O)c1cc2ccccc2[nH]1)c1ccccc1", 90.5],
  ["CC(C)(C)OC(=O)N1CCC(C(=O)NC(=O)c2ccccc2)C1 (stereo not drawn)", 143],
  ["COc1ccc2cc([C@H](C)C(=O)O)ccc2c1", 112],
  ["O=C(NC(=O)c1ccco1)c1ccccc1", 106],
  ["CC(C)Cc1ccc(C(C)C(=O)NC(=O)c2ccccc2)cc1 (stereo not drawn)", 91],
  ["COc1ccc2cc(C(C)C(=O)NC(=O)c3ccccc3)ccc2c1 (stereo not drawn)", 89.7],
  ["O=C(/C=C/c1ccccc1)NC(=O)c1cc2ccccc2[nH]1", 32.4],
  ["O=C(/C=C/c1ccccc1)NC(=O)/C=C/c1ccccc1", 20.2],
  ["CC(C)Cc1ccc(C(C)C(=O)NC(=O)/C=C/c2ccccc2)cc1 (stereo not drawn)", 94.4],
  ["O=C(/C=C/c1ccccc1)NC(=O)c1ccco1", 97.3]
]}

====

Assay: Cytotoxicity against mouse RAW264.7 cells assessed as cell viability at 10 uM incubated for 24 hrs by MTT assay relative to control
Type: toxicity, cell-based
Details: read-out: Activity

{"columns": ["molecule", "readout-unit", "viability at 24 h, 10 µM"],
 "data": [
  ["CC(C)(C)OC(=O)N1CCC(C(=O)NC(=O)/C=C/c2ccccc2)C1 (stereo unspecified)", "%", 135],
  ["COc1ccc2cc(C(C)C(=O)NC(=O)/C=C/c3ccccc3)ccc2c1 (stereo unspecified)", "%", 78.5],
  ["O=C(NC(=O)c1cccs1)c1ccccc1", "%", 99.3],
  ["COc1ccc2cc(C(C)C(=O)NC(=O)C(C)c3ccc(CC(C)C)cc3)ccc2c1 (stereo unspecified)", "%", 117],
  ["O=C(/C=C/c1ccccc1)NC(=O)c1ccc2ccccc2n1", "%", 93.2],
  ["O=C(NC(=O)c1ccc2ccccc2n1)c1ccccc1", "%", 88.2]
]}
